System: Escherichia coli TOP10
Test: shrunken log2 fold change of peptide-encoding DNA abundance (4.5 h post-induction vs induction); higher = less antimicrobial activity (less host growth inhibition)
Settings: time post-induction: 4.5 h; library: site-saturation at positions 5, 18, 19, 20
Here, each record is paired with measured shrunken log2 fold change data.
assayEndpoint: shrunken log2 fold change

>>> reportedresult("RRIRVRPPRLPRPRPRPGKNPRP")
-0.22
>>> reportedresult("RRIRVRPPRLPRPRPRPPYYPRP")
-0.363
>>> reportedresult("RRIRARPPRLPRPRPRPVKAPRP")
0.0269
>>> reportedresult("RRIRWRPPRLPRPRPRPYAVPRP")
0.0097
>>> reportedresult("RRIRTRPPRLPRPRPRPGWLPRP")
0.445
>>> reportedresult("RRIRCRPPRLPRPRPRPMRPPRP")
0.214
>>> reportedresult("RRIRHRPPRLPRPRPRPDFHPRP")
-0.769
>>> reportedresult("RRIRKRPPRLPRPRPRPVSTPRP")
-0.102
>>> reportedresult("RRIRTRPPRLPRPRPRPETSPRP")
0.199
>>> reportedresult("RRIRRRPPRLPRPRPRPWSSPRP")
0.0446
>>> reportedresult("RRIRCRPPRLPRPRPRPDKKPRP")
-0.132
>>> reportedresult("RRIRGRPPRLPRPRPRPFKKPRP")
0.0278
>>> reportedresult("RRIRHRPPRLPRPRPRPRLNPRP")
-0.249
>>> reportedresult("RRIRERPPRLPRPRPRPCQHPRP")
-0.0915
>>> reportedresult("RRIRDRPPRLPRPRPRPWCYPRP")
0.155

* * *

System: Escherichia coli TOP10;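 further: peptides expressed intracellularly from a pBAD plasmid library in pooled LB shake-flask culture, induced with 0.3% L-arabinose, DNA abundance read by NGS, three biological replicates, DESeq2 with apeglm shrinkage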
Assay: shrunken log2 fold change of peptide-encoding DNA abundance (4.5 h post-induction vs induction); higher = less antimicrobial activity (less host growth inhibition)
Conditions: time post-induction: 4.5 h; library: site-saturation at positions 5, 18, 19, 20
// label = MET if shrunken log2 fold change is not less than -0.2, otherwise NOT MET

>>> labelvalue("RRIRHRPPRLPRPRPRPHCTPRP")
"MET"
>>> labelvalue("RRIRYRPPRLPRPRPRPEIHPRP")
"NOT MET"
>>> labelvalue("RRIRFRPPRLPRPRPRPDVGPRP")
"NOT MET"
>>> labelvalue("RRIRHRPPRLPRPRPRPGRMPRP")
"NOT MET"
>>> labelvalue("RRIRHRPPRLPRPRPRPCKFPRP")
"MET"
>>> labelvalue("RRIRRRPPRLPRPRPRPNCYPRP")
"MET"
>>> labelvalue("RRIRLRPPRLPRPRPRPDREPRP")
"MET"
>>> labelvalue("RRIRQRPPRLPRPRPRPKDVPRP")
"MET"
>>> labelvalue("RRIRRRPPRLPRPRPRPRDTPRP")
"MET"
>>> labelvalue("RRIRARPPRLPRPRPRPINEPRP")
"MET"
>>> labelvalue("RRIRKRPPRLPRPRPRPHPSPRP")
"MET"
>>> labelvalue("RRIRTRPPRLPRPRPRPTTGPRP")
"MET"
>>> labelvalue("RRIRWRPPRLPRPRPRPEDYPRP")
"MET"
>>> labelvalue("RRIRGRPPRLPRPRPRPKRMPRP")
"MET"
>>> labelvalue("RRIRFRPPRLPRPRPRPQVLPRP")
"MET"
>>> labelvalue("RRIRFRPPRLPRPRPRPFARPRP")
"MET"
>>> labelvalue("RRIRLRPPRLPRPRPRPHQDPRP")
"NOT MET"
>>> labelvalue("RRIRLRPPRLPRPRPRPQVNPRP")
"MET"
>>> labelvalue("RRIRRRPPRLPRPRPRPTKQPRP")
"MET"
>>> labelvalue("RRIRYRPPRLPRPRPRPEDSPRP")
"MET"
>>> labelvalue("RRIRQRPPRLPRPRPRPVYCPRP")
"MET"
>>> labelvalue("RRIRFRPPRLPRPRPRPRIQPRP")
"MET"
>>> labelvalue("RRIRFRPPRLPRPRPRPWSLPRP")
"NOT MET"
>>> labelvalue("RRIRFRPPRLPRPRPRPMYDPRP")
"NOT MET"
>>> labelvalue("RRIRVRPPRLPRPRPRPSMAPRP")
"MET"
>>> labelvalue("RRIRRRPPRLPRPRPRPLQGPRP")
"MET"
>>> labelvalue("RRIRHRPPRLPRPRPRPYFYPRP")
"NOT MET"
>>> labelvalue("RRIRKRPPRLPRPRPRPTPIPRP")
"MET"
>>> labelvalue("RRIRYRPPRLPRPRPRPIEDPRP")
"NOT MET"
>>> labelvalue("RRIRRRPPRLPRPRPRPAHEPRP")
"MET"
>>> labelvalue("RRIRSRPPRLPRPRPRPGKYPRP")
"NOT MET"
>>> labelvalue("RRIRWRPPRLPRPRPRPGGIPRP")
"MET"
